- procedureText: LD50 (toxicity) in mice
- testConditions: mouse, in vivo, iv

| smilesStr | LD50 |
| --- | --- |
| Cc1cc2oc3nn[nH]c3c(=O)c2cc1C | 20 to 80 mg/kg |
